These records show Ki for D(2) dopamine receptor (Homo sapiens, UniProt P14416).

record smiles: O=C(NC1CCN(Cc2ccccc2)CC1)c1cccc2ccccc12
Ki: > 1000 nM

Moving on to another compound below.
q: Record O=C(NC1CCN(Cc2ccccc2)CC1)c1ccc2ccccc2c1 : what is its Ki with D(2) dopamine receptor (Homo sapiens, UniProt P14416)?
a: > 1000 nM

---

# measured on: D(4) dopamine receptor (Homo sapiens)
# Sequence (P21917 whole entry): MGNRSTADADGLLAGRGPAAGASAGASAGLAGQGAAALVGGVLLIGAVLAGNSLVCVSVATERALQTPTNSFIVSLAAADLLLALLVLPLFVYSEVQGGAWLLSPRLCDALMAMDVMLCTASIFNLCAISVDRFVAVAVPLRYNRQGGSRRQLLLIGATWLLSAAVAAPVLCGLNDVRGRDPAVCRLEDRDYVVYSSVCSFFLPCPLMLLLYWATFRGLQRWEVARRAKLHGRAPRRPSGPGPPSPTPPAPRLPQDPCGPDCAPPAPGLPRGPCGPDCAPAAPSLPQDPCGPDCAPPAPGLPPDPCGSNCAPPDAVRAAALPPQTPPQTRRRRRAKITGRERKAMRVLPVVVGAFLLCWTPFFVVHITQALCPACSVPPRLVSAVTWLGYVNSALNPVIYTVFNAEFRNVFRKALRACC
pKi: −log10 of the molar value.
// label = Met if pKi is not less than 7, otherwise Not met

Solved cases below.
compound: O=C(NC1CCN(Cc2ccccc2)CC1)c1ccc2ccccc2c1
category: Met
//
compound: O=C(NC1CCN(CCc2ccccc2)CC1)c1cccc2ccccc12
category: Not met
//
compound: CC(c1ccccc1)N1CCC(NC(=O)c2ccc3ccccc3c2)CC1 (configuration not stated)
category: Met
//
compound: O=C(c1ccc2ccccc2c1)N1CCC(NCCCc2ccccc2)CC1
category: Not met

q: Threshold query (pKi >= 7) on O=C(NC1CCN(CCCCc2ccccc2)CC1)c1cccc2ccccc12
a: Not met

---

# measured on: UniProtKB P14416
# protocol description: Displacement of [3H]spiperone from human cloned dopamine D2L receptor at 1 uM
parameter: Activity
Respond with the figure and its unit, in that order.

Below are worked cases with known answers.
compound: O=C(NC1CCN(CCCc2ccccc2)CC1)c1ccc2ccccc2c1
result: 13%
//
compound: O=C(NC1CCN(CCc2ccccc2)CC1)c1ccc2ccccc2c1
result: 7%
//
compound: O=C(NC1CCN(CCc2ccccc2)CC1)c1cccc2ccccc12
result: 3%
//
compound: O=C(c1ccc2ccccc2c1)N1CCC(NCCc2ccccc2)CC1
result: 0%
//
compound: O=C(NC1CCN(CCCCc2ccccc2)CC1)c1cccc2ccccc12
result: 18%

Hi there! I need Activity for each item below, if you can.
1. O=C(c1cccc2ccccc12)N1CCC(NCCCc2ccccc2)CC1
2. O=C(c1cccc2ccccc12)N1CCC(NCCc2ccccc2)CC1

a:
1. 0%
2. 0%

---

# measured on: D(4) dopamine receptor (Homo sapiens) (UniProt P21917)
# Sequence (P21917 whole entry): as above
# protocol description: Displacement of [3H]nemonapride from human cloned dopamine D4.2 receptor at 1 uM
Please mark Fulfilled if the recorded Activity is equal to or greater than 40%, and Not fulfilled if it falls below.

Consider the following illustrative entries.
compound: O=C(c1cccc2ccccc12)N1CCC(NCCCc2ccccc2)CC1
category: Fulfilled
--
compound: O=C(NC1CCN(CC[C@H](O)c2ccccc2)CC1)c1cccc2ccccc12
category: Fulfilled
--
compound: CC(c1ccccc1)N1CCC(NC(=O)c2cccc3ccccc23)CC1 (stereo unspecified)
category: Not fulfilled

q: Is Activity at least 40%? Consider O=C(c1cccc2ccccc12)N1CCC(NCc2ccccc2)CC1
a: Not fulfilled

q: Confirm if Activity reported for the compound O=C(c1ccc2ccccc2c1)N1CCC(NCC[C@H](O)c2ccccc2)CC1 is 40% or above.
a: Fulfilled

q: Quick check: does O=C(c1cccc2ccccc12)N1CCC(NCCc2ccccc2)CC1 have Activity greater than or equal to 40%?
a: Not fulfilled

---

# measured on: D(2) dopamine receptor (Homo sapiens)
# Sequence (P14416 whole entry): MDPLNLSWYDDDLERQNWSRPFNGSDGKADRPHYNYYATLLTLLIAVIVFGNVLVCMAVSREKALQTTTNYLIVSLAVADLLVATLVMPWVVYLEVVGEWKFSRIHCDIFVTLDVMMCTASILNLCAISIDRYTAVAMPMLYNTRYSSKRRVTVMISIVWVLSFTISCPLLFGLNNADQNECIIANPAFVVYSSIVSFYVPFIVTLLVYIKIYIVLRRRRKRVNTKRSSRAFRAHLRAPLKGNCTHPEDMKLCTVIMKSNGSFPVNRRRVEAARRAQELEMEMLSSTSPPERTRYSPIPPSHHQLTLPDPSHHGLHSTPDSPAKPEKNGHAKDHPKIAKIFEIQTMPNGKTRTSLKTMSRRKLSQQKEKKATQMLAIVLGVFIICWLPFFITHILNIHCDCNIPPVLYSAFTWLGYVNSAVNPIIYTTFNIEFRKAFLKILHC
# protocol description: Displacement of [3H]spiperone from human cloned dopamine D2L receptor at 1 uM
parameter: Activity (%)
Give bare numbers, in %.

molecule: O=C(c1cccc2ccccc12)N1CCC(NCc2ccccc2)CC1
Activity, %: 0
--
molecule: O=C(NC1CCN(CC[C@H](O)c2ccccc2)CC1)c1cccc2ccccc12
Activity, %: 0
--
molecule: O=C(c1ccc2ccccc2c1)N1CCC(NCc2ccccc2)CC1
Activity, %: 0
--
molecule: O=C(c1ccc2ccccc2c1)N1CCC(NCCCc2ccccc2)CC1
Activity, %: 0
--
molecule: O=C(NC1CCN(CCCc2ccccc2)CC1)c1cccc2ccccc12
Activity, %: 9

Working through the 2 molecules below one at a time, give Activity for each.
1. O=C(NC1CCN(CCCCc2ccccc2)CC1)c1ccc2ccccc2c1
2. CC(c1ccccc1)N1CCC(NC(=O)c2cccc3ccccc23)CC1 (configuration not stated)

a:
22
11
